Provenance of the data: patent US10851082B2

- target-under-test: Mnk1 (Homo sapiens (Human), UniProt Q9BUB5)
- Sequence (Q9BUB5 whole entry): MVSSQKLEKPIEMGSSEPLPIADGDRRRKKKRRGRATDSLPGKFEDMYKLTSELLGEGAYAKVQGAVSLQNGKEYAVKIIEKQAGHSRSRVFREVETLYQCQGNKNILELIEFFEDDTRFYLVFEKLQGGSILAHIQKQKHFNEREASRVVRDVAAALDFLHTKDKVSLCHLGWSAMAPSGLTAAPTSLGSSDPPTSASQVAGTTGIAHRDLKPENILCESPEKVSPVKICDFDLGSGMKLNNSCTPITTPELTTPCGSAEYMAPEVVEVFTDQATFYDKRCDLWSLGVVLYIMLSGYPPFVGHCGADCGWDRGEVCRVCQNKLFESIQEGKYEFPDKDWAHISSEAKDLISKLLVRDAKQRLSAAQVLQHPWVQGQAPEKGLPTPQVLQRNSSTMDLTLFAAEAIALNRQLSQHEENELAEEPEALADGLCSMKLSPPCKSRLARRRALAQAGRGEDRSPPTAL
- assay-name: Mnk1 kinase inhibition, ADP-Glo ADP monitoring assay
- Assay type: biochemical
- condition-context: read-out: Mnk1 IC50
pIC50: −log10 of the molar value.
Tag: Criterion met if measured pIC50 is not below 5, Criterion not met if it is.

compound="c1cc(CCNc2nccc(-n3cnc4cnccc43)n2)ccn1 [NUCC-0176143]" target_under_test="Mnk1 (Homo sapiens (Human), UniProt Q9BUB5)" label="Criterion met"
compound="COC1CCC(Nc2nccc(-n3cnc4ccccc43)n2)CC1 (stereo not drawn) [NUCC-0176153]" target_under_test="Mnk1 (Homo sapiens (Human), UniProt Q9BUB5)" label="Criterion met"
compound="c1cc(CCNc2nccc(-c3cnn(CCN4CCOCC4)c3)n2)ccn1 [NUCC-0060970]" target_under_test="Mnk1 (Homo sapiens (Human), UniProt Q9BUB5)" label="Criterion not met"
compound="O=C(c1ccc(Nc2nccc(-n3cnc4ccccc43)n2)cc1)N1CCNCC1 [NUCC-0125597]" target_under_test="Mnk1 (Homo sapiens (Human), UniProt Q9BUB5)" label="Criterion met"

Prompt: Dear colleague, could you confirm whether Nc1ccnc(-n2cnc3ccccc32)n1 [NUCC-0176349] has pIC50 at or above 5?
Completion: Criterion met

Prompt: Dear colleague, could you confirm whether OCCNc1nccc(-n2cnc3ccccc32)n1 [NUCC-0176352] has pIC50 at or above 5?
Completion: Criterion met

Prompt: Dear colleague, could you confirm whether c1ccc2c(c1)NCCN2c1ccnc(NCCc2ccncc2)n1 [NUCC-0175722] has pIC50 at or above 5?
Completion: Criterion met

Prompt: Dear colleague, could you confirm whether c1cncc(CCNc2nccc(-n3cnc4ccccc43)n2)c1 [NUCC-0176340] has pIC50 at or above 5?
Completion: Criterion met

Prompt: Dear colleague, could you confirm whether c1cc(CNc2nccc(-c3cnn(C4CCOCC4)c3)n2)ccn1 [NUCC-0060959] has pIC50 at or above 5?
Completion: Criterion not met

Prompt: Dear colleague, could you confirm whether COc1cccc(-n2cc(-c3ccnc(NC4CCNC4)n3)cn2)c1 (stereo not drawn) [NUCC-0125590] has pIC50 at or above 5?
Completion: Criterion met

Prompt: Dear colleague, could you confirm whether O[C@@H]1CC[C@@H](Nc2nccc(-n3cnc4ccccc43)n2)C1 [NUCC-0176165] has pIC50 at or above 5?
Completion: Criterion met

Prompt: Dear colleague, could you confirm whether O=C1NCCCCC1Nc1nccc(-n2cnc3ccccc32)n1 (stereo not drawn) [NUCC-0176367] has pIC50 at or above 5?
Completion: Criterion met

Prompt: Dear colleague, could you confirm whether c1ccc2c(c1)ncn2-c1ccnc(Nc2ccncc2)n1 [NUCC-0125585] has pIC50 at or above 5?
Completion: Criterion met

Prompt: Dear colleague, could you confirm whether c1cc2c(cn1)ncn2-c1ccnc(NC2CCOC2)n1 (stereo not drawn) [NUCC-0176152] has pIC50 at or above 5?
Completion: Criterion met

Prompt: Dear colleague, could you confirm whether c1ccc2c(c1)OCCN2c1ccnc(NCCc2ccncc2)n1 [NUCC-0176230] has pIC50 at or above 5?
Completion: Criterion met

Prompt: Dear colleague, could you confirm whether COc1cccc(-n2cc(-c3ccnc(NC4CCOCC4)n3)cn2)c1 [NUCC-0125591] has pIC50 at or above 5?
Completion: Criterion not met

Prompt: Dear colleague, could you confirm whether FC(F)(F)c1cnc(NCCc2ccncc2)nc1-n1cnc2ccccc21 [NUCC-0176282] has pIC50 at or above 5?
Completion: Criterion met

Prompt: Dear colleague, could you confirm whether Clc1cnc(NCCc2cccnc2)nc1-n1cnc2ccccc21 [NUCC-0176357] has pIC50 at or above 5?
Completion: Criterion met

Prompt: Dear colleague, could you confirm whether NC(=O)CNc1ncc(Cl)c(-n2cnc3ccccc32)n1 [NUCC-0176359] has pIC50 at or above 5?
Completion: Criterion met

Prompt: Dear colleague, could you confirm whether CN(C)CCNc1nccc(-c2cnn(C)c2)n1 [NUCC-0060898] has pIC50 at or above 5?
Completion: Criterion met

Prompt: Dear colleague, could you confirm whether c1ccc2c(c1)ccn2-c1ccnc(NCCc2cnc[nH]2)n1 [NUCC-0060958] has pIC50 at or above 5?
Completion: Criterion met

Prompt: Dear colleague, could you confirm whether COc1cccc(-n2cc(-c3ccnc(NCCc4ccncc4)c3)cn2)c1 [NUCC-0125601] has pIC50 at or above 5?
Completion: Criterion met

---

- target-under-test: Mnk2 (Homo sapiens (Human))
- Sequence (Q9HBH9 whole entry): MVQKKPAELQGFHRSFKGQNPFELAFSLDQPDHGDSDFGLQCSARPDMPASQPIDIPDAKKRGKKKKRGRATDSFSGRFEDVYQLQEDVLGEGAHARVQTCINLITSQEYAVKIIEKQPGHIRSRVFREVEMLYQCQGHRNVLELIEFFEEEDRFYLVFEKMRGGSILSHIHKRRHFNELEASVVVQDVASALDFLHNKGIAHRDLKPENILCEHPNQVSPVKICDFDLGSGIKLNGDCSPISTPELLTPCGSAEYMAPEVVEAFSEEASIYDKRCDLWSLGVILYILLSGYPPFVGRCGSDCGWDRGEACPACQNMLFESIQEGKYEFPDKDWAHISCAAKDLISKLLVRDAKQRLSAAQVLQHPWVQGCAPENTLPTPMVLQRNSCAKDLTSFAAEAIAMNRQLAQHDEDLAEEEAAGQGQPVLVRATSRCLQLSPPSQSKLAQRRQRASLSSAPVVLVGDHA
- assay-name: Mnk2 kinase inhibition, ADP-Glo ADP monitoring assay
- Assay type: biochemical
- condition-context: ADP-Glo kinase assay; read-out: Mnk2 inhibition IC50 (+,++,+++)
measurement-kind: IC50

Consider the reported IC50 for these compounds:
compound=N#Cc1cnc(Oc2ccc(Cl)cc2)nc1-n1cnc2ccccc21 result="< 1 µM"
compound=Clc1cnc(OC2CCOCC2)nc1-n1cnc2ccccc21 result="< 1 µM"
compound=FC(F)(F)c1cnc(NC23CC(C2)C3)nc1-n1cnc2ccccc21 result="< 1 µM"
compound="NC(=O)c1cccc(-c2cnc(OC3CCNC3)nc2-n2cnc3ccccc32)c1 (centres unmarked)" result="< 1 µM"

Entry Clc1cnc(OC2CCOC2)nc1-n1cnc2ccccc21 (centres unmarked) ; IC50 = < 1 µM

---

- target-under-test: Mnk1
- assay-name: Cellular inhibition of Mnk1, flow cytometry of phospho-eIF-4E (Ser209), MV4-11 cells
- Type: cell-based
- condition-context: read-out: MV4-11 pEIF4E IC50, phospho-eIF-4E Ser209, flow cytometry
pIC50: −log10 of the molar value.
Tag: T if measured pIC50 is not below 7, F if it is.

Some solved cases for reference:
chemical_smiles=Clc1cnc(NCCc2cnc[nH]2)nc1-n1cnc2ccccc21 target_under_test=Mnk1 label=F
chemical_smiles=CN(C)CCNc1nccc(-c2cnn(C)c2)n1 target_under_test=Mnk1 label=T

Prompt: Dear colleague, could you confirm whether c1ccc2c(c1)ccn2-c1ccnc(NCCc2cnc[nH]2)n1 has pIC50 at or above 7?
Completion: T

Prompt: Dear colleague, could you confirm whether c1ccc2c(c1)ncn2-c1ccnc(Nc2ccncc2)n1 has pIC50 at or above 7?
Completion: T

---

- System: U937 cells
- assay-name: Cell viability assay (CellTiter-Glo), U937
- Type: cell-based
- condition-context: Homo sapiens, U-937; U937 cells, ATP levels with CellTiter-Glo; read-out: U937 viability EC50
# EC50 annotations
Answer in µM, number only, no unit symbol.

compound="c1ccc2c(c1)ccn2-c1ccnc(NCCc2ccncc2)n1 [NUCC-0060954]" units_symbol=µM measured_number=2.6

Next:
Entry N#Cc1cnc(NCCc2ccncc2)nc1-n1cnc2ccccc21 [NUCC-0176343] ; EC50 = 2.6

---

- target-under-test: Mnk1 (Homo sapiens (Human))
- assay-name: Mnk1 kinase inhibition, ADP-Glo ADP monitoring assay
- Type: biochemical
- condition-context: read-out: Mnk1 inhibition IC50 (+,++,+++)
pIC50: −log10 of the molar value.
measurement-kind: pIC50

compound="CCc1nc(OC2CC(N)C2)nc(-n2cnc3ccccc32)c1Cl (centres unmarked) [NUCC-0201916]" result="5.00 to 6.00"

Entry Cc1nc2ccccc2n1-c1nc(OC2CC(N(C)C)C2)ncc1Cl (centres unmarked) [NUCC-0201016] ; pIC50 = 5.00 to 6.00

Entry Brc1cnc(OC2CCNC2)nc1-n1cnc2ccccc21 (centres unmarked) [NUCC-0201895] ; pIC50 = > 6.00

Entry Clc1cnc(OC2CCC2)nc1-n1cnc2ccccc21 [NUCC-0201048] ; pIC50 = > 6.00

Entry Clc1cnc(OCCC2CCNCC2)nc1-n1cnc2ccccc21 [NUCC-0201002] ; pIC50 = > 6.00

Entry CC1=C(Oc2ncc(Cl)c(-n3cnc4ccccc43)n2)C(=O)C(C)O1 (centres unmarked) [NUCC-0201018] ; pIC50 = 5.00 to 6.00

Entry Fc1ccc2c(ncn2-c2nc(OCCc3ccccn3)ncc2Cl)c1F [NUCC-0201662] ; pIC50 = > 6.00

Entry N#Cc1cnc(OCCc2cccnc2)nc1-n1cnc2ccccc21 [NUCC-0201005] ; pIC50 = 5.00 to 6.00

Entry Nc1ccc(CCOc2ncc(Cl)c(-n3cnc4ccccc43)n2)cc1 [NUCC-0201892] ; pIC50 = > 6.00

---

- target-under-test: Mnk1 (Homo sapiens (Human), UniProt Q9BUB5)
- assay-name: Mnk1 kinase inhibition, ADP-Glo ADP monitoring assay
- Format: biochemical
- condition-context: read-out: Mnk1 IC50
# pIC50 annotations
Field pIC50 (float): negative decimal logarithm of the concentration in molar.

Consider the reported pIC50 for these compounds:
compound="OC1CCC(Nc2nccc(-n3cnc4ccccc43)n2)CC1 (stereo not shown) [NUCC-0176166]" measured_number=6.41
compound=c1ccc2c(c1)ncn2-c1ccnc(NC2COC2)n1 measured_number=6.38
compound=O[C@H]1CC[C@H](Nc2nccc(-n3cnc4ccccc43)n2)C1 measured_number=6.70

Considering Cn1cc(-c2ccnc(N3CCC[C@H]3CO)n2)cn1 , its pIC50 with Mnk1 (Homo sapiens (Human), UniProt Q9BUB5) was recorded as 5.52

Considering COc1cccc(-n2cc(-c3ccnc(NC4CCNCC4)n3)cn2)c1 , its pIC50 with Mnk1 (Homo sapiens (Human), UniProt Q9BUB5) was recorded as 5.22

Considering Cn1cc(-c2ccnc(NCCCN3CCCCC3)n2)cn1 , its pIC50 with Mnk1 (Homo sapiens (Human), UniProt Q9BUB5) was recorded as 5.30
